Below, each of the compounds is paired with its reported IC50 value.
# Study Target: human TRPV4 (Homo sapiens, UniProt Q9HBA0)
# Construct: host or cells: tetracycline-inducible Flp-In T-REx 293 cells
# Sequence (Q9HBA0 whole entry): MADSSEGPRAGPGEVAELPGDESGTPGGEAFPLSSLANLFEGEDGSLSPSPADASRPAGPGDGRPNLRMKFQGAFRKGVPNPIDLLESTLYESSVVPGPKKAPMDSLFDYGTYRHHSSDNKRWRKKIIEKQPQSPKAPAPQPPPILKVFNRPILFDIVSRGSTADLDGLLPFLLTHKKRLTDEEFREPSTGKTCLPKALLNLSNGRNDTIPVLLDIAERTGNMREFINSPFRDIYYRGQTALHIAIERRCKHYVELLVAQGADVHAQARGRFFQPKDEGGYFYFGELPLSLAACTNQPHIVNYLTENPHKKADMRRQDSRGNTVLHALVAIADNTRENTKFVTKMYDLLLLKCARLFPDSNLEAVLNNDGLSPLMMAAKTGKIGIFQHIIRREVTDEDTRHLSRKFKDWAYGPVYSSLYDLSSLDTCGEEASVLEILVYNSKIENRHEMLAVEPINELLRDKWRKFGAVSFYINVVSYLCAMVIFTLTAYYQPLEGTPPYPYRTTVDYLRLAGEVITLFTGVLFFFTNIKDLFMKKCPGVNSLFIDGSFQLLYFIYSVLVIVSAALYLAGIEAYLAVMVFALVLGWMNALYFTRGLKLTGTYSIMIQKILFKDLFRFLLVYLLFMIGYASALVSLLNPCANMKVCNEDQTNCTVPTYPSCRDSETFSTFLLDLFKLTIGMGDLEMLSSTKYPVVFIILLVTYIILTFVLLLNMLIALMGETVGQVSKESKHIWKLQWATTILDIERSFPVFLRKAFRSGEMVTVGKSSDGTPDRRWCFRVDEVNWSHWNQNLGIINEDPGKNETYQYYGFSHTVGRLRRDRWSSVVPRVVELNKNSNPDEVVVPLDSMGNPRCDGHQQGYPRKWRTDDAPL
# Measurement Description: Hypotonicity-induced Ca2+ influx (Fluo-4, FDSS)
# Format: cell-based
# Experimental Conditions: Flp-In T-REx 293 cells stably expressing human TRPV4, compounds listed by potency bin (<10 nM Tables 96-1/96-2, <3 nM Table 97)

For orientation, consider the following solved cases.
O=C(C(O)c1cccc(-c2cccc(OC(F)(F)F)c2)c1)N1CCc2nc(C3(c4ccccc4)CC3)[nH]c(=O)c2C1 (centres unmarked) | < 10 nM
CC(C)N(C(=O)c1csc(C2(c3nc4c(c(=O)[nH]3)CN(C(=O)[C@H](O)c3cccc(C(F)(F)F)c3)CCC4)CC2)c1)C(C)C | < 10 nM
CC(C)c1cncc(C2(c3nc4c(c(=O)[nH]3)CN(C(=O)C(O)c3cccc(Cl)c3F)CCC4)CC2)c1 (centres unmarked) | < 10 nM
O=C([C@H](O)c1cccc(-c2cccc(Cl)c2)c1)N1CCc2nc(C3(c4cccc(Cl)c4)CC3)[nH]c(=O)c2C1 | < 10 nM

For the compound shown here, O=C(C(O)c1cccc(C(F)(F)F)c1F)N1CCCc2nc(C3(c4ccccc4)CC3)[nH]c(=O)c2C1 (centres unmarked) , give the reported IC50.
< 10 nM

# repeat for O=C([C@H](O)c1cccc(Cl)c1)N1CCc2nc(C3(c4cncc(C5CCCCC5)c4)CC3)[nH]c(=O)c2C1
< 10 nM

###

# Study Target: human TRPV4 (Homo sapiens)
# Construct: host or cells: tetracycline-inducible Flp-In T-REx 293 cells
# Measurement Description: Hypotonicity-induced Ca2+ influx (Fluo-4, FDSS)
# Type: cell-based
# Experimental Conditions: Flp-In T-REx 293 cells stably expressing human TRPV4, compounds listed by potency bin (<10 nM Tables 96-1/96-2, <3 nM Table 97)
Metric: IC50

For orientation, consider the following solved cases.
O=C(Cc1cccc(-c2coc3ccccc23)c1)N1CCCc2nc(C3(c4ccccc4)CC3)[nH]c(=O)c2C1 | < 10 nM
O=C([C@H](O)c1cccc(-c2ccc(F)c(Cl)c2)c1)N1CCc2nc(C3(c4cccc(Cl)c4)CC3)[nH]c(=O)c2C1 | < 3 nM
CC(C)c1cccc(C2(c3nc4c(c(=O)[nH]3)CN(C(=O)[C@H](O)c3cccc(Cl)c3)CCC4)CC2)c1 | < 10 nM
CCc1csc(C2(c3nc4c(c(=O)[nH]3)CN(C(=O)[C@H](O)c3cccc(C(F)(F)F)c3)CCC4)CC2)c1 | < 3 nM
O=C([C@H](O)c1cccc(C(F)(F)F)c1)N1CCCc2nc(C3(c4cccc(-c5cc(F)cc(F)c5)c4)CC3)[nH]c(=O)c2C1 | < 10 nM
COc1ccc(C(=O)N2CC=C(c3cccc(C4(c5nc6c(c(=O)[nH]5)CN(C(=O)[C@H](O)c5cccc(C(F)(F)F)c5)CCC6)CC4)c3)CC2)cc1OC1CCCC1 | < 3 nM
O=C(N1CCCc2nc(C3(c4ccccc4)CC3)[nH]c(=O)c2C1)C(F)(F)c1cccc(-c2cccc(C(F)(F)F)c2)c1 | < 10 nM
O=C([C@H](O)c1cccc(C(F)(F)F)c1)N1CCCc2nc(C3(c4cccc(C5CCN(CC(F)(F)F)CC5)c4)CC3)[nH]c(=O)c2C1 | < 3 nM

Query for human TRPV4 (Homo sapiens): what IC50 does the record show for O=C([C@H](O)c1cccc(C(F)(F)F)c1)N1CCc2nc(C3(c4cccc(-c5ccccc5)c4)CC3)[nH]c(=O)c2C1 ?
< 3 nM

# repeat for CC(C)Oc1cccc(-c2cccc([C@@H](O)C(=O)N3CCc4nc(C5(c6ccccc6)CC5)[nH]c(=O)c4C3)c2)c1
< 3 nM

# repeat for CC(C)(C)c1cccc(-c2cccc(C(F)(F)C(=O)N3CCCc4nc(C5(c6ccccc6)CC5)[nH]c(=O)c4C3)c2)c1
< 10 nM

# repeat for O=C([C@H](O)c1cccc(Cl)c1)N1CCc2nc(C3(c4cccc(C5CCCCC5)c4)CC3)[nH]c(=O)c2C1
< 3 nM

# repeat for O=C([C@H](O)c1cccc(C(F)(F)F)c1)N1CCCc2nc(C3(c4cccc(-c5ccc(N6CCCC6)nc5)c4)CC3)[nH]c(=O)c2C1
< 10 nM

# repeat for O=C([C@H](O)c1cccc(-c2csc3ccccc23)c1)N1CCCc2nc(C3(c4cccc(Cl)c4)CC3)[nH]c(=O)c2C1
< 10 nM
